// provenance: patent US5066676A

# protocol details: Acute toxicity: rat
# condition notes: in vivo, po; rat (Wistar), 5000 mg/kg/os, 20 ml/kg; read-out: % Death
Measured mortality at 360 h values are reported for all entries that follow.
Respond with the bare value in %.

                            molecule_smiles  numeric_readout
0  Cc1cc(C)c(S(=O)(=O)N(C)CC(=O)O)cc1S(=O)(=O)N(C)CC(=O)O                0

Then this compound:
Q: Endpoint output: mortality at 360 h of CN(CC(=O)O)S(=O)(=O)c1ccc2oc3ccc(F)cc3c(=O)c2c1 . Value?
A: 30

###

# protocol details: Acute toxicity: mice
# condition notes: in vivo, po; mouse (Swiss), 5000 mg/kg/os; read-out: % Death
property measured: mortality at 360 h (%)
Respond with the bare value in %.

>>> print(df.to_string())
                            molecule_smiles   property_measured  unit_label  numeric_readout
0  CN(CC(=O)O)S(=O)(=O)c1ccc2oc3ccc(F)cc3c(=O)c2c1  mortality at 360 h           %               10

Q: Endpoint output: mortality at 360 h of Cc1cc(C)c(S(=O)(=O)N(C)CC(=O)O)cc1S(=O)(=O)N(C)CC(=O)O . Value?
A: 0
